# Study target: PARM^Y543E (human, UniProt Q99767 364-570, Y524W | Y543E)
# Sequence (Q99767 364-570 Y524W/Y543E): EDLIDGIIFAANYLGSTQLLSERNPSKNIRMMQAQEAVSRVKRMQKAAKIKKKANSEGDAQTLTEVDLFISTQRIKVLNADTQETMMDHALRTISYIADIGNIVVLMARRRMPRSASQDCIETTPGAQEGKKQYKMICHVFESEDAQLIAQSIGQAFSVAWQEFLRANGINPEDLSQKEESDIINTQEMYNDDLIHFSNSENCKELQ
# Assay procedure: stopped-flow fluorescence kinetics
# Particulars: both partners purified
Where no end group is shown, it is not given here. The star is where a group is joined. Dansyl = CN(C)c1cccc2c(S(=O)(=O)*)cccc12
Property: binding result

>>> value_measured("Dansyl-NGYENPTYKFAE [dansyl-APP F765A]")
"binds"
>>> value_measured("Dansyl-NGYENGTYKFFE [dansyl-APP P760G]")
"binds"
>>> value_measured("Dansyl-NGYENPTYAFFE [dansyl-APP K763A]")
"binds"
